These measurements were taken from patent US20220133913A1.

Test Target: T1, human αvβ3 integrin ITGAVB3 (human, UniProt P06756 31-992; P05106 27-718, limits assumed)
T1 construct: Recombinant heterodimer used as immunogen, ELISA coating and SPR ligand; also called A5B3; A5b3
T1 sequence (P06756 31-992 limits assumed, chain 1 of 2): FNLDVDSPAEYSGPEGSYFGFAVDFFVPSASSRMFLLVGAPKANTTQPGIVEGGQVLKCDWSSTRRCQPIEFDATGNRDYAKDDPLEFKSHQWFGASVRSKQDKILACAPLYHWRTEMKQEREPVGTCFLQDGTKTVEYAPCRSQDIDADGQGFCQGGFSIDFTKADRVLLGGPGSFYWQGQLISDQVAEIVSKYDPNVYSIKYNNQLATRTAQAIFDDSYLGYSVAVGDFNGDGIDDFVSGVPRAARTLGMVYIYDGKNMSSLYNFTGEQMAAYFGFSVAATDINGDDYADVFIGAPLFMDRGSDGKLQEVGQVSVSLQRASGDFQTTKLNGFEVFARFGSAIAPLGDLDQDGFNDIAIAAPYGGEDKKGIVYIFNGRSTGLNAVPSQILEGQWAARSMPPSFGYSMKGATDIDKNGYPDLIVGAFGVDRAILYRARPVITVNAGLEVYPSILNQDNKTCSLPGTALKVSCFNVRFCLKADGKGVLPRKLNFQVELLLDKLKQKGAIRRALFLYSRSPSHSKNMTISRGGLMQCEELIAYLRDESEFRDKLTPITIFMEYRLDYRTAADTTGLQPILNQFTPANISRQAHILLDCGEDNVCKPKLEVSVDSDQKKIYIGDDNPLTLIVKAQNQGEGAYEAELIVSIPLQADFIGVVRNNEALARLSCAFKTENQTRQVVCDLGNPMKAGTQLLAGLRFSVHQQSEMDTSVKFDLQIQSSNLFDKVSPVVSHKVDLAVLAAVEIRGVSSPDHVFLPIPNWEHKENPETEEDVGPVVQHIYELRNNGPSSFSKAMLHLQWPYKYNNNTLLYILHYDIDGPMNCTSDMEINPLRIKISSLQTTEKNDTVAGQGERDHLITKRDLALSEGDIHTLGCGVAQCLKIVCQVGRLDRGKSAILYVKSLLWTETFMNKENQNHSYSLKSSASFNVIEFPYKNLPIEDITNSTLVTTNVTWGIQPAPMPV
T1 sequence (P05106 27-718 limits assumed, chain 2 of 2): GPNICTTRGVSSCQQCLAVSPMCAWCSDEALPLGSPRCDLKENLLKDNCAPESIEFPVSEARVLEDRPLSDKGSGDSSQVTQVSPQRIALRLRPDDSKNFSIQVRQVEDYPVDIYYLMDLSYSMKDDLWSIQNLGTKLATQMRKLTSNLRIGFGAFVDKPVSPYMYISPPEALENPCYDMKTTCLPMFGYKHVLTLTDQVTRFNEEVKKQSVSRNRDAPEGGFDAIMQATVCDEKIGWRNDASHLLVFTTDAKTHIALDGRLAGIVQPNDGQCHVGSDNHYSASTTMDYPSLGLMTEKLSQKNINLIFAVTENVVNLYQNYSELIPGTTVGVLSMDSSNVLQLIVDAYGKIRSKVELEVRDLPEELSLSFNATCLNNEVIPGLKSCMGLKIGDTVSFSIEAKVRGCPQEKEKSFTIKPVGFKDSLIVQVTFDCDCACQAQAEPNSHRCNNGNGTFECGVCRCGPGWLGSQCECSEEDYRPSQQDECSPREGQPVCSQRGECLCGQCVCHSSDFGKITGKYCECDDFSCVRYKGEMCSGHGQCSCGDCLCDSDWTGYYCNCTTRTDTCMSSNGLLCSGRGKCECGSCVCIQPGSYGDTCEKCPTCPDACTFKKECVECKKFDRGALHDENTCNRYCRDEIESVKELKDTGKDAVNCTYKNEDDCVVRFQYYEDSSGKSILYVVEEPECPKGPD
Measurement Notes: SPR, αvβ3 integrin immobilised on CMDH chip, nanobody as analyte
koff: recorded values
A number alone suffices; assume s⁻¹.

Solved cases below.
Query :: Provide one value: measured koff of single-domain antibody VHH-25 containing lysin and His6 tags (VHH, also called Nanobody #25-Lys; VHH-25-K1; not shown: C-terminal lysine tag and His6 tag with any linker) VHH: EVQLVESGGGSVQAGGSLRLSCVVSGYTCSVYDMIWYRQPPGKEREFVSLINSNGRTTYADSVKGRFTISQNNAKNTVYLQMNSLKPEDTAMYYCHAACYSPSRLNYWGQGTQVTVSS
Result :: 0.000802

Query :: Provide one value: measured koff of single-domain antibody VHH-22 containing His6 tag (VHH, also called Nanobody #22) VHH: QVQLVESGGGSVQAGGSLRLSCVVSGYTCSVYDMIWYRQPPGKEREFVSLINSNGRTTYADSVKGRFTISQNNAKNTVYLQMNSLKPEDTAMYYCHAACYSPSRLNYWGQGTLVTVSS
Result :: 0.000974

Query :: Provide one value: measured koff of single-domain antibody VHH-13 containing His6 tag (VHH, also called Nanobody #13) VHH: HVQLVESGGGSVQPGESLRLSCVASGYTVSSSCMAWFRQAPGKEREVVATIVVTSDTTSTFYADSVKGRFTISPDNAKNTLNLQMNSLEPSDTAMYYCAADRKWNVCSRGYRYTPNWANQFTFWGQGTQVTVSS
Result :: 0.00108

Continuing:
Query :: Provide one value: measured koff of single-domain antibody VHH-25 containing His6 tag (VHH, also called Nanobody #25; pALT-Avb3 VHH25 product) VHH: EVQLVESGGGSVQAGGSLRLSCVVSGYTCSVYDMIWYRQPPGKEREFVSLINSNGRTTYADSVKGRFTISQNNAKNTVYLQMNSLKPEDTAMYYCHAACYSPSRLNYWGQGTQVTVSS
Result :: 0.000871
